These entries and their values trace back to patent US10975068B2.

testedTarget: full-length human RORγt (Homo sapiens (Human), UniProt P51449)
Sequence (P51449 other isoform, or with tags, fused parts or gaps): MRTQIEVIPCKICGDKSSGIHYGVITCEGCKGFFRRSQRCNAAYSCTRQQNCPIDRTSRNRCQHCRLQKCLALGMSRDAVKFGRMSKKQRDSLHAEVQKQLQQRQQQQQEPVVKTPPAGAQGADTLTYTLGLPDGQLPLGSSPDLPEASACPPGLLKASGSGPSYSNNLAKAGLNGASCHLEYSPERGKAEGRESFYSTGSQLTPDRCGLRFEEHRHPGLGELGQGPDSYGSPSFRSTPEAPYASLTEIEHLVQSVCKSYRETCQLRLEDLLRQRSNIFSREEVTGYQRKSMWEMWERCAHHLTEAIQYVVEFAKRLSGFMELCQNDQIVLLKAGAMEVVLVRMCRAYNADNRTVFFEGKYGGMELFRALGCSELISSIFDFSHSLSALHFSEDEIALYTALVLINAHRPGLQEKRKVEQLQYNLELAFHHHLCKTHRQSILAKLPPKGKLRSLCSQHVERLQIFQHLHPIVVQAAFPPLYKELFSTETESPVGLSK
testProtocol: RORγt (full-length human) reporter assay, Conditions B or C
Type: cell-based
conditionInfo: at 3 μM compound concentration; read-out: RORγt (FL) Reporter Assay B or C, % inhibition
Excerpt: RORγt (Full-Length Human) Reporter Assay: Cells used in this assay were transiently co-transfected with three different plasmids, one expressing the GAL4-DNA binding domain (DBD)-RORγt fusion protein under control of a CMV promoter (NH2-Gal4-DBD:RORC-COOH in pCMV-BD, Stratagene #211342), and two reporter plasmids—the firefly luciferase reporter under control of a GAL4 promoter (pFR-Luc 2×GAL4) and Renilla luciferase reporter under control of CMV promoter (pRL-CMV, Promega # E2261). […]
assayEndpoint: inhibition at 3 µM (%)

C[C@H]1CCCN1C(=O)c1nc(C(=O)NC2(CO)CCC2)sc1-c1cnc(NC(C)(C)C)cc1C(F)(F)F; 104
C[C@H]1CCCN1C(=O)c1nc(C(=O)N[C@H]2CC[C@@H]2O)sc1-c1cnc(NC(C)(C)C)cc1C(F)(F)F (relative stereo); 108
C[C@H]1CCCN1C(=O)c1nc(C(=O)N[C@H](C)C(C)(C)O)sc1-c1cnc(NC(C)(C)C)cc1C(F)F; 101
C[C@H](NC(=O)c1nc(C(=O)N2CCC[C@@H]2C)c(-c2cnc(N[C@H](C3CC3)C(F)(F)F)cc2C(F)F)s1)C(C)(C)O; 98
C[C@H]1CCCN1C(=O)c1nc(C(=O)NCc2n[nH]c(=O)o2)sc1-c1cnc(NC(C)(C)C)cc1C(F)(F)F; 100
CC(C)(C)Nc1cc(C(F)F)c(-c2sc(C(=O)NC3CCS(=O)(=O)CC3)nc2C(=O)N2C3CCC2CC3)cn1; 128

###

testedTarget: full-length human RORγt (Homo sapiens (Human), UniProt P51449)
testProtocol: RORγt (full-length human) reporter assay, Conditions B or C
Format: cell-based
conditionInfo: read-out: RORγt (FL) Reporter Assay B or C, IC50
pIC50: −log10 of the molar value.
assayEndpoint: pIC50

For orientation, consider the following solved cases.
C[C@H]1CCCN1C(=O)c1nc(C(=O)NC2(CO)COC2)sc1-c1cnc(NC(C)(C)C)cc1C(F)(F)F; 7.64
CC[C@H](Nc1cc(C(F)F)c(-c2sc(C(=O)N[C@@H]3CC[C@H]3O)nc2C(=O)N2CCC[C@@H]2C)cn1)C(F)(F)F (relative stereo); 7.22
C[C@H]1CCCN1C(=O)c1nc(C(=O)NC2CCS(=O)(=O)CC2)sc1-c1cnc(NC(C)(C)C)cc1C(F)F; 7.68

(1) C[C@H]1CCCN1C(=O)c1nc(C(=O)N[C@@H]2CC[C@H]2O)sc1-c1cnc(NC(C)(C)C)cc1C(F)(F)F (relative stereo)
(2) C[C@H]1CCCN1C(=O)c1nc(C(=O)NC2COC2)sc1-c1cnc(NC(C)(C)C)cc1C(F)(F)F
Ask: Thinking about recorded pIC50 values, which is higher, 1 or 2 ? Answer by stating the label of the chosen item.
Result: 1
(1: 8.00, 2: 7.60)

###

testedTarget: UniProtKB P51449
testProtocol: RORγt (full-length human) reporter assay, Conditions B or C
Format: cell-based
conditionInfo: read-out: RORγt (FL) Reporter Assay B or C, IC50
assayEndpoint: IC50 (µM)

C[C@H]1CCCN1C(=O)c1nc(C(=O)NC[C@H](O)C(F)(F)F)sc1-c1cnc(NC(C)(C)C)cc1C(F)(F)F (relative stereo); 0.02
CC[C@H](Nc1cc(C(F)F)c(-c2sc(C(=O)N[C@@H]3CC[C@@H]3O)nc2C(=O)N2CCC[C@@H]2C)cn1)C(F)(F)F (relative stereo); 0.012
CC[C@H](Nc1cc(C(F)F)c(-c2sc(C(=O)NC3CCS(=O)(=O)CC3)nc2C(=O)N2CC(F)(F)C[C@@H]2C)cn1)C(F)(F)F; 0.079

(P) C[C@H]1CCCN1C(=O)c1nc(C(=O)NC2CCS(=O)(=O)CC2)sc1-c1cnc(NC(C)(C)C)cc1C(F)(F)F
(Q) C[C@H]1CCCN1C(=O)c1nc(C(=O)N[C@H](C)C(C)(C)O)sc1-c1cnc(NC(C)(C)C)cc1C(F)F
Ask: // pick min by IC50: P , Q Answer by stating the label of the chosen item.
Result: Q

(A) CCNC(=O)c1nc(C(=O)N2CCC[C@@H]2C)c(-c2cnc(NC(C)(C)C)cc2C(F)(F)F)s1
(B) C[C@H](NC(=O)c1nc(C(=O)N2CCC[C@@H]2C)c(-c2cnc(N[C@@H](C3CC3)C(F)(F)F)cc2C(F)F)s1)C(C)(C)O
Ask: // pick min by IC50: A , B Answer by stating the label of the chosen item.
Result: A

(a) C[C@H]1CCCN1C(=O)c1nc(C(=O)NCC(C)(C)O)sc1-c1cnc(N[C@@H](C2CC2)C(F)(F)F)cc1C(F)F
(b) C[C@H](Nc1cc(C(F)F)c(-c2sc(C(=O)N[C@@H]3CCC[C@H]3O)nc2C(=O)N2CC(F)(F)C[C@@H]2C)cn1)C(F)(F)F
(c) C[C@H](CO)NC(=O)c1nc(C(=O)N2CCC[C@@H]2C)c(-c2cnc(N[C@@H](C)C(F)(F)F)cc2C(F)F)s1
(d) C[C@H]1CCCN1C(=O)c1nc(C(=O)NC2CCCC2O)sc1-c1cnc(NC(C)(C)C)cc1C(F)(F)F (stereo partly shown)
Ask: Sort by IC50, descending. Put the labels in the requested order and list them out.
Result: c, b, a, d
